TARGET OF ASSAY: T1, Recombinant soluble E protein (0.8E-His) from DENV-1 (DENV-1, UniProt P27909 281-675)
T1 construct: also called DENV-1 E protein; DV1
Consider the following binders and their measured Kd readings.

BINDER	Kd
DG_3CH-SG182/3CL-SK1 (antibody, human IgG1, kappa, V domains shown) VH: QVQLVQSGPDVEKPGASVKVSCKASGYTFTSNYIHWVRQAPGQGLEWMGVINPRGGSTASAQKFQGRITMTRDTSTSTVYMELSSLRSDDTAVYYCARGGRALFYDSYTTPRDGGSWWFDPWGQGSLVTVSS VL: DIQLTQSPSSLSASVGDRVTFTCQASQDIRKYLNWYQQKPGKAPKLLIYDASNLKTGVPSRFSGSGSGTDFTFTISSLQPEDVATYYCQQFDDLPITFGQGTRLQIKR	32.1 nM
DG_3CH955-SG182/3CL499-SK1 (antibody, human IgG1, kappa, V domains shown) VH: QVQLVQSGPDVEKPGASVKVSCKASGYTFTSNYIHWVRQAPGQGLEWMGVINPRGGSRRSAQKFQGRITMTRDTSTSTVYMELSSLRSEDTAVYYCARGGRALFYDSYTTPRDLGSWWFDPWGQGSLVTVSS VL: DIQLTQSPSSLSASVGDRVTFTCQASQDIRKYLNWYQQKPGKAPKLLIYDASNLKFGVPSRFSGSGSGTDFTFTISSLQPEDVATYYCQQFDALPITFGQGTRLQIKR	1.26 nM
DG_3CH954-SG182/3CL-SK1 (antibody, V domains shown) VH: QVQLVQSGPDVEKPGASVKVSCKASGYTFTSNYIHWVRQAPGQGLEWMGVINPRGGSRRSAQKFQGRITMTRDTSTSTVYMELSSLRSEDTAVYYCARGGRALFYDSYTTPRDDGSWWFDPWGQGSLVTVSS VL: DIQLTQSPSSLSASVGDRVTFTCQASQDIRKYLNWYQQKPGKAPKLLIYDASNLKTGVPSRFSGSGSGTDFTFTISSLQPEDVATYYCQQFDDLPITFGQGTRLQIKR	0.887 nM
